Reference source: ChEMBL document CHEMBL4765407

Test system: UMUC3
Test: Cytotoxicity against human UMUC3 cells assessed as reduction in cell viability measured after 72 hrs by SRB assay
Assay type: functional, cell-based
Details: UMUC3, 72 h
One threshold, 50 nM, splits the recorded IC50 values: lower ones are MET, equal or higher ones are NOT MET.

given_smiles=O=c1c2cc(O)ccc2[nH]c2c([N+](=O)[O-])ccc(NCCCN3CCN(CCCNc4c5ccccc5nc5cccc([N+](=O)[O-])c45)CC3)c12 measurement_target=UMUC3 class_label=MET
given_smiles=Cc1ccc([N+](=O)[O-])c2c(NCCCN3CCN(CCCNc4ccc([N+](=O)[O-])c5[nH]c6ccccc6c(=O)c45)CC3)c3ccccc3nc12 measurement_target=UMUC3 class_label="NOT MET"
given_smiles=Cc1ccc([N+](=O)[O-])c2c(NCCCN(C)CCCNc3ccc([N+](=O)[O-])c4[nH]c5ccccc5c(=O)c34)c3ccccc3nc12 measurement_target=UMUC3 class_label="NOT MET"
given_smiles=Cc1ccc([N+](=O)[O-])c2c(NCCCN3CCN(CCCNc4ccc5ncn6c7ccc(O)cc7c(=O)c4c56)CC3)c3ccccc3nc12 measurement_target=UMUC3 class_label=MET
given_smiles=CN(CCCNc1c2ccccc2nc2cccc([N+](=O)[O-])c12)CCCNc1ccc([N+](=O)[O-])c2[nH]c3ccc(O)cc3c(=O)c12 measurement_target=UMUC3 class_label=MET
given_smiles=O=c1c2ccccc2[nH]c2c([N+](=O)[O-])ccc(NCCCN3CCN(CCCNc4c5ccccc5nc5cccc([N+](=O)[O-])c45)CC3)c12 measurement_target=UMUC3 class_label=MET
